- Tested on: 699152-130-R-J1-PDC complex spheroid viability;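 also: spheroids exposed to agents for 7 days before viability reading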
- Assay Notes: Anticancer human tumor 699152-130-R-J1-PDC patient-derived pancreatic carcinoma cell line growth inhibition [POLQ]
- Details: second compound 0.1 µM; first compound 0.316 µM; stronger effect = lower value
- Procedure: Multicellular complex tumor spheroid response to Polymerase (POL) inhibitors (novobiocin, ART-558, RP6685) in combination with a variety of drugs and investigational agents in selected tumor cell lines The POL inhibitors (novobiocin, ART-558, and RP6685) were evaluated both individually and in combination with standard of care and investigational anticancer small molecules within a complex spheroid model of solid tumors. . […]
So basically: is viability, T/C under 90%? Then T. Not under? Then F.

API: query returns whether the molecule falls strictly under 90% in viability, T/C. Query: CCc1c2c(nc3ccc(O)cc13)-c1cc3c(c(=O)n1C2)COC(=O)[C@]3(O)CC + COC1C(OC(N)=O)C(O)C(Oc2ccc3c(O)c(NC(=O)c4ccc(O)c(CC=C(C)C)c4)c(=O)oc3c2C)OC1(C)C
T
